Molecular target: PC-BSA
Sequence (P02769 25-607 limits assumed, form in doubt): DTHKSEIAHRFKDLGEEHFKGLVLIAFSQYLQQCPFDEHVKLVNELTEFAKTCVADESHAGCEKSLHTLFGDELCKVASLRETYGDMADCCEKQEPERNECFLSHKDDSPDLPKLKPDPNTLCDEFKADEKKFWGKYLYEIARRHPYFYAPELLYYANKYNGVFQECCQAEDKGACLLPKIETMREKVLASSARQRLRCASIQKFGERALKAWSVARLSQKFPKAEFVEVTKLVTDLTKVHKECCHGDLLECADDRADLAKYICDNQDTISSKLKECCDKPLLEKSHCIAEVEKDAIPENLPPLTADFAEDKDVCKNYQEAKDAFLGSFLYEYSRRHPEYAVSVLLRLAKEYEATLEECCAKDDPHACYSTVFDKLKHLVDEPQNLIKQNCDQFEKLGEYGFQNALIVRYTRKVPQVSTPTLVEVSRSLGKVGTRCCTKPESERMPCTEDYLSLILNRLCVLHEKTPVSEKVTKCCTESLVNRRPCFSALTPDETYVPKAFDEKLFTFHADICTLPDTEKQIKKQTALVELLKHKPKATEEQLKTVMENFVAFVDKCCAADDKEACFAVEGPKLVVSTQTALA
Experiment: ELISA (DELFIA TRF), PC-BSA coated, titrated IgG1
Measure name: pEC50
// returns pEC50 (minus log10 of molar concentration), number only

Use the examples below as a reference point.
- Binder: "PcOxP_DB03_C03 (human IgG1) (antibody, V domains shown) VH: EVQLLESGGGLVQPGGSLRLSCAASGFTFSDFYMEWVRQAPGKGLEWVAASRNKYNDYTTEYADSVKGRFTISRDNSKNTLYLQMNSLRAEDTAVYYCARDYYGSSYWYFDVWGQGTLVTVSS VL: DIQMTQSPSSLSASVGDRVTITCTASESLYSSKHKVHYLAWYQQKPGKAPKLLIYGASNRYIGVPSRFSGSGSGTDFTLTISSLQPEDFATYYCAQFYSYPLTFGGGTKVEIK"
  pEC50: 9.47
- Binder: "PcOxP_DB01_H08 (human IgG1) (antibody, V domains shown) VH: EVQLLESGGGLVQPGGSLRLSCAASGFTHSDFYMEWVRQAPGKGLEWVAASRNKANDYTTEYADSVKGRFTISRDNSKNTLYLQMNSLRAEDTAVYYCARDYYGSSYWYFDVWGQGTLVTVSS VL: DIQMTQSPSSLSASVGDRVTITCRASESISSSKHKHYLAWYQQKPGKAPKLLIYGASNRYIGVPSRFSGSGSGTDFTLTISSLQPEDFATYYCAQFYVYPLTFGGGTKVEIK"
  pEC50: 9.61
- Binder: "PcOxP_DB01_H01 (human IgG1) (antibody, V domains shown) VH: EVQLLESGGGLVQPGGSLRLSCAASGFTFSSYYMEWVRQAPGKGLEWVAASRNKANLYTTEYADSVKGRFTISRDNSKNTLYLQMNSLRAEDTAVYYCARDYYGSSTWYFDVWGQGTLVTVSS VL: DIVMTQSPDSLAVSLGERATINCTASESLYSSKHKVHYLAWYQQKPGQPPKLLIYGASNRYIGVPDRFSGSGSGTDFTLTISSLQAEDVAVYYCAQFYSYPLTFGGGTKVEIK"
  pEC50: 9.56
- Binder: "PcOxP_DB04_E08 (human IgG1) (antibody, V domains shown) VH: EVQLLESGGGLVQPGGSLRLSCAASGFTSSDFYLEWVRQAPGKGLEWVAASRNKWNDYTTEYADSVKGRFTISRDNSKNTLYLQMNSLRAEDTAVYYCARDYYGSSYWYFDVWGQGTLVTVSS VL: DIVMTQSPDSLAVSLGERATINCTASESLYSSKHKVHYLAWYQQKPGQPPKLLIYGVSNRYIGVPDRFSGSGSGTDFTLTISSLQAEDVAVYYCAQFYSYPLTFGGGTKVEIK"
  pEC50: 9.60
- Binder: "PcOxP_DB03_H08 (human IgG1) (antibody, V domains shown) VH: EVQLLESGGGLVQPGGSLRLSCAASGGTFSDFYMEWVRQAPGKGLEWVAASRNKANTYTTEYADSVKGRFTISRDNSKNTLYLQMNSLRAEDTAVYYCARDYYGSSYWYFDVWGQGTLVTVSS VL: DIQMTQSPSSLSASVGDRVTITCTASESLYSSKHKVHYLAWYQQKPGKAPKLLIYGSSNRYIGVPSRFSGSGSGTDFTLTISSLQPEDFATYYCAQFYQYPLTFGGGTKVEIK"
  pEC50: 9.35
- Binder: "PcOxP_DB04_E05 (human IgG1) (antibody, V domains shown) VH: EVQLLESGGGLVQPGGSLRLSCAASGNTFSDFYMEWVRQAPGKGLEWVAASRNKANYYTTEYADSVKGRFTISRDNSKNTLYLQMNSLRAEDTAVYYCARDYYGSSYWYFDVWGQGTLVTVSS VL: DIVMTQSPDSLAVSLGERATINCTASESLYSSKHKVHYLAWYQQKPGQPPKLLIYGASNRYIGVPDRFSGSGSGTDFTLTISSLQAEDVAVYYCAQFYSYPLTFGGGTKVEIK"
  pEC50: 9.55
- Binder: "PcOxP_DB01_C04 (human IgG1) (antibody, V domains shown) VH: EVQLLESGGGLVQPGGSLRLSCAASGFQFSDFYMEWVRQAPGKGLEWVAASRNKANDYTTEYADSVKGRFTISRDNSKNTLYLQMNSLRAEDTAVYYCARDYYGSSYWYFDVWGQGTLVTVSS VL: DIQMTQSPSSLSASVGDRVTITCTASESLYSSKHKVHYLAWYQQKPGKAPKLLIYGASNRYIGVPSRFSGSGSGTDFTLTISSLQPEDFATYYCAQFYYYPLTFGGGTKVEIK"
  pEC50: 9.51
- Binder: "PcOxP_DB01_F06 (human IgG1) (antibody, V domains shown) VH: EVQLLESGGGLVQPGGSLRLSCAASGDTFSDFYMEWVRQAPGKGLEWVAASRNKANDYTTEYADSVKGRFTISRDNSKNTLYLQMNSLRAEDTAVYYCARDYYGSSYWYFDVWGQGTLVTVSS VL: DIVMTQSPDSLAVSLGERATINCKSSQSLYYSSNKKNYLAWYQQKPGQPPKLLIYGASNRYGGVPDRFSGSGSGTDFTLTISSLQAEDVAVYYCAQFYRYPLTFGGGTKVEIK"
  pEC50: 9.67
- Binder: "PcOxP_DB02_H07 (human IgG1) (antibody, V domains shown) VH: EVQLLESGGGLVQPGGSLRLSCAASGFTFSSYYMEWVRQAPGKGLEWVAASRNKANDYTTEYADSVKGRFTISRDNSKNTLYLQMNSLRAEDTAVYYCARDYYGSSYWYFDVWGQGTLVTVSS VL: DIVMTQSPDSLAVSLGERATINCTASESLYSSKHKVHYLAWYQQKPGQPPKLLIYGASNRYNGVPDRFSGSGSGTDFTLTISSLQAEDVAVYYCAQFYTYPLTFGGGTKVEIK"
  pEC50: 9.37

Next, consider the following binder.
Qu. Recorded pEC50 for PcOxP_DB02_F10 (human IgG1) (antibody, V domains shown) VH: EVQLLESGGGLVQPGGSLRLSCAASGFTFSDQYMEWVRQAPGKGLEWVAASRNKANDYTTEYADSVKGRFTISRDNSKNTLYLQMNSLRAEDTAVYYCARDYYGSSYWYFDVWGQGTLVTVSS VL: DIVMTQSPDSLAVSLGERATINCTSSQSVLSSKHNKNYLAWYQQKPGQPPKLLIYGASNRYWGVPDRFSGSGSGTDFTLTISSLQAEDVAVYYCAQFYSYPLTFGGGTKVEIK , please?
Ans. 9.18
